These entries and their values trace back to patent US4022900A.

Consider the following compounds; for each one, report its LD50.
experimental details: Acute toxicity (LD50) in the mouse
cond: in vivo, Table I, unit, species and route not given

Batch lookup, LD50 per entry.
1. COc1cc(C(=O)Nc2cccc3c2CN(C)CC3)cc(OC)c1OC [M-65]
2. CN1CCc2c(cccc2NC(=O)c2ccccc2Cl)C1 [M-63]
3. CCCN1CCc2c(cccc2NC(=O)c2cc(OC)c(OC)c(OC)c2)C1 [M-49]
4. COc1cccc(OC)c1C(=O)Nc1cccc2c1CCN(C)C2 [M-57]
5. CCCN1CCc2c(cccc2NC(=O)c2ccc(OC)c(OC)c2)C1 [M-47]
6. CN1CCc2c(cccc2NC(=O)c2ccccc2F)C1 [M-68]

250 to 500 mg/kg
125 to 188 mg/kg
125 to 250 mg/kg
250 to 500 mg/kg
250 to 500 mg/kg
250 to 500 mg/kg

====

Consider the following compounds; for each one, report its Percent Change in Pressure from Control ± S.E., 24 Hours.
Tested on: systolic blood pressure of deoxycorticosterone acetate hypertensive rats
experimental details: Hypotensive activity in DCA/saline hypertensive rats (systolic blood pressure, tail cuff)
Format: in vivo, rat (male, CD strain)
cond: 50 mg/kg i.p., 24 hours; systolic pressure; * <0.05 significance (Newman-Keuls)
Counter-ions that a name gives are not always drawn.
Give bare numbers, in %.

These recorded examples may help you get a feel for the data.
> print(dat)
                                   compound  data.value
1   CN1CCc2c(cccc2NC(=O)c2ccccc2I)C1 [M-70]        -0.7
2  CCc1cccc(CC)c1C(=O)Nc1cccc2c1CCN(C)C2 [M-66]        -2.1
3  COc1ccc(C(=O)Nc2cccc3c2CCNC3)cc1 [M-44, HCl]        -6.4
4  CN1CCc2c(cccc2NC(=O)c2ccccc2[N+](=O)[O-])C1 [M-69]        -1.0
5  COc1cc(C(=O)Nc2ccc3c(c2)CCN(C)C3)cc(OC)c1OC [M-72, HCl]        -3.8

We now examine a further compound.
Name the reported Percent Change in Pressure from Control ± S.E., 24 Hours value associated with the compound CCCN1CCc2c(cccc2NC(=O)c2ccc(OC)cc2)C1 [M-50]
-6.2

====

experimental details: Acute toxicity (LD50) in the mouse
cond: in vivo, ip, mice, intraperitoneally, about
experimental readout: LD50

Name the reported LD50 value associated with the molecule COc1cc(C(=O)Nc2cccc3c2CCN(C)C3)cc(OC)c1OC [M-20]
125 to 250 mg/kg

====

Consider the following compounds; for each one, report its Lowering of Blood Pressure in Hypertensive rate in mm's of Hg., 2 hrs..
Test system: systolic blood pressure of deoxycorticosterone acetate hypertensive rats
experimental details: Hypotensive activity in DCA/saline hypertensive rats (systolic blood pressure, tail cuff)
Assay type: in vivo, rat (male, CD strain)
cond: 50 mg/kg intraperitoneal, 2 hrs, change vs predrug control; six rats
Structures can show the parent of a compound that is named as a salt.

> print(dat)
                                   compound        data.value
1       COc1ccc(C(=O)Nc2cccc3c2CCN(C)C3)cc1  -30±8 mm's of Hg
2  COc1cc(C(=O)Nc2cccc3c2CN(C)CC3)cc(OC)c1OC  -44±8 mm's of Hg

Batch lookup, Lowering of Blood Pressure in Hypertensive rate in mm's of Hg., 2 hrs. per entry.
1. COc1cc(C(=O)Nc2cccc3c2CCNC3)cc(OC)c1OC [M-46, HCl]
2. CN1CCc2c(cccc2NC(=O)c2ccccc2F)C1

1: -25±7 mm's of Hg; 2: -10±5 mm's of Hg

Batch lookup, Lowering of Blood Pressure in Hypertensive rate in mm's of Hg., 2 hrs. per entry.
1. COc1cccc(OC)c1C(=O)Nc1cccc2c1CCN(C)C2
2. COc1cc(C(=O)Nc2cccc3c2CCN(C)C3)cc(OC)c1OC
3. COc1ccc(C(=O)Nc2cccc3c2CCN(C)C3)cc1OC
4. CCCN1CCc2c(cccc2NC(=O)c2ccc(OC)c(OC)c2)C1

1: -7±5 mm's of Hg; 2: -26±2 mm's of Hg; 3: -31±5 mm's of Hg; 4: -46±11 mm's of Hg

Batch lookup, Lowering of Blood Pressure in Hypertensive rate in mm's of Hg., 2 hrs. per entry.
1. CN1CCc2c(cccc2NC(=O)c2ccccc2Br)C1
2. CN1CCc2c(cccc2NC(=O)c2ccccc2)C1
3. CCCN1CCc2c(cccc2NC(=O)c2cc(OC)c(OC)c(OC)c2)C1
4. COc1ccc(C(=O)Nc2cccc3c2CCNC3)cc1OC [M-34, HCl]
5. CN1CCc2c(cccc2NC(=O)c2ccccc2Cl)C1
6. COc1cc(OC)c(C(=O)Nc2cccc3c2CCN(C)C3)cc1OC
7. COc1cc(C(=O)Nc2ccc3c(c2)CN(C)CC3)cc(OC)c1OC

1. -10±8 mm's of Hg
2. -14±6 mm's of Hg
3. -27±6 mm's of Hg
4. -28±7 mm's of Hg
5. -36±4 mm's of Hg
6. -19±5 mm's of Hg
7. -46±7 mm's of Hg
